The origin of these recorded values is patent US20160108098A1.

# study-target: human Neuropeptide Y receptor type 2 (Homo sapiens)
# Construct: expressed in transfected cells; host or cells: melanophores; own knowledge: in the cited Jayawickreme protocol these are Xenopus laevis melanophores transfected with the receptor
# Sequence (P49146 whole entry): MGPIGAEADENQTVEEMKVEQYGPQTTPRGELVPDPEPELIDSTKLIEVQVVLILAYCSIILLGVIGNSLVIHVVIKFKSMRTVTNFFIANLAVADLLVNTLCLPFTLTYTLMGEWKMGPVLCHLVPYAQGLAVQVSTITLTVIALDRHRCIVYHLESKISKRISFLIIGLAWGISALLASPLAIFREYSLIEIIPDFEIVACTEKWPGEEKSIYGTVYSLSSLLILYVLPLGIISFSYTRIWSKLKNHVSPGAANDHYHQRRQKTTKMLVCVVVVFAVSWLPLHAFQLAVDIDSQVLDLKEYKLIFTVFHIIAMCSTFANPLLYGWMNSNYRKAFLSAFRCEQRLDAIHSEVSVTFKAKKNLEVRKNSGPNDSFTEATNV
# method-description: melanophore assay, potency at the human Neuropeptide Y receptor type 2
# Assay type: cell-based
# reported-conditions: read-out: hNPY Y2 pEC50 (converted)
Where no end group is shown, it is not given here.
result-type: EC50 (nM)

The cases that follow already have their EC50 on record.
Inquiry: Find the measured EC50 of PKPEAPGCDASPEEWNRYYASLRKYLNWVTRQHY-NH2 [Peptide 14] and report it.
Reply text: 6.31

Inquiry: Return EC50 for the following substance: H-PKPEAPGEDASPKEWNRYYASLRKYLNWVTRQRY-NH2 [Peptide 3]
Reply text: 0.631

Inquiry: Tell me measured EC50 for H-PKPEAPGCDASPEEWNRYYASLRKYLNWVTRQNY-NH2 [Peptide 1] please.
Reply text: 12.6

Inquiry: Tell me measured EC50 for H-IKPEAPLSKQLEEEAVRYYASLRHYLNLVTRQRY-NH2 [Peptide 2] please.
Reply text: 2.51

(A) H-PKPEAPLSKQLEEEAVRYYASLRHYLNLVTRQRY-NH2 [Peptide 21]
(B) PKPVAPGCDASPAELNRQYSDLRNYWNLVTRQRY-NH2 [Peptide 15]
Inquiry: Which value of EC50 is numerically greater: that of A or that of B ? In your reply, give the label of the chosen option.
Reply text: A
